Cited source for all entries: ChEMBL document CHEMBL4689842

Assign Population Pyknosed Nuclei (%) to each entry below.
- System: HEK-293T
- test.details: Multiplex assay against HEK293T
- Type: toxicity, cell-based
- run.parameters: human, 12 h, 1 µM, compound concentration 1 uM, replicate 1
One number for each entry, in %.

// solved cases for Population Pyknosed Nuclei (%) follow
smiles.code: CNC(=O)c1ccc(Nc2nc(OC3CCCC3)c3c(-c4ccc5nc(C)oc5c4)c[nH]c3n2)c(OC)c1
Population Pyknosed Nuclei (%): 57

smiles.code: CCCS(=O)(=O)Nc1ccc(F)c(C(=O)c2c[nH]c3ncc(Cl)cc23)c1F
Population Pyknosed Nuclei (%): 20

smiles.code: NC(=O)c1cccc(-c2cc(Nc3ccc(OC(F)(F)F)cc3)ncn2)c1
Population Pyknosed Nuclei (%): 12

smiles.code: CCCS(=O)(=O)c1nc(NC2CC2)cc(-c2ccc3c(ccn3C3CC(C)(C)NC(C)(C)C3)c2)n1
Population Pyknosed Nuclei (%): 53

smiles.code: Cc1ccc2nc(NCCN)c3ncc(C)n3c2c1.O=C(O)C(F)(F)F.O=C(O)C(F)(F)F
Population Pyknosed Nuclei (%): 18

smiles.code: CCCn1c(=O)c2[nH]c(-c3cnn(Cc4cccc(C(F)(F)F)c4)c3)nc2n(CC)c1=O
Population Pyknosed Nuclei (%): 69

smiles.code: C=C1/C(=C\C=C2/CCC[C@]3(C)[C@@H]([C@H](C)/C=C/[C@H](C)C(C)C)CC[C@@H]23)C[C@@H](O)C[C@@H]1O
Population Pyknosed Nuclei (%): 55

Read the next record carefully.
Input line: State the recorded Population Pyknosed Nuclei (%) for this entry: O=C(Nc1ccc(-c2ccnc(Nc3ccc(N4CCOCC4)cc3)n2)cc1)[C@@H]1CCCN1
Output line: 56

* * *

Assign Population Membrane Permeable-Phenotype (%) to each entry below.
- System: U2OS
- test.details: Multiplex assay against U2OS
- Type: toxicity, cell-based
- run.parameters: human, 24 h, 1 µM, compound concentration 1 uM, replicate 1
Numbers only, in %.

compound: O=C(Nc1ccc(-n2nc(-c3cccnc3)cc2C(F)(F)F)cn1)c1ccc(-c2ccccc2)c(F)c1
system.name: U2OS
measurement.units: %
reported.value: 3
//
compound: CCOC(=O)c1c(C)[nH]c2ccc3c(c12)CN1CCc2cc(OC)ccc2C1O3 (stereo not drawn)
system.name: U2OS
measurement.units: %
reported.value: 3
//
compound: C=CCn1c(=O)c2cnc(Nc3ccc(N4CCN(C)CC4)cc3)nc2n1-c1cccc(C(C)(C)O)n1
system.name: U2OS
measurement.units: %
reported.value: 30

Provide Population Membrane Permeable-Phenotype (%) values for the following items, in order.
1. CNc1cc(Oc2cc(C(=O)Nc3cc(N4CCN(C)CC4)cc(C(F)(F)F)c3)ccc2C)ncn1
2. O=C1NC(=O)C(c2cnc3ccccn23)=C1c1cn2c3c(cc(F)cc13)CN(C(=O)N1CCCCC1)CC2
3. O=C1N/C(=N/c2ccccc2F)S/C1=C\c1ccc(C(=O)O)cc1
4. Cl.O=c1c2cccn2c2ccccc2n1CCCN1CCC(c2ccc(Cl)cc2)CC1
5. CCCS(=O)(=O)Nc1ccc(F)c(C(=O)c2c[nH]c3ncc(Cl)cc23)c1F

Output line:
[10, 3, 4, 0, 16]

* * *

- System: Fibroblast
- test.details: Multiplex assay against human fibroblast
- Type: toxicity, cell-based
- run.parameters: 12 h, 10 µM, compound concentration 10 uM, replicate 2
// classify: if (Population Normal (%) < 80%) yes else no

Input line: Consider CNC(=O)c1ccc(Nc2nc(OC3CCCC3)c3c(-c4ccc5nc(C)oc5c4)c[nH]c3n2)c(OC)c1 . Does its Population Normal (%) lie strictly below 80%?
Output line: yes

Input line: Consider CN1CCN(C(=O)C(C)(C)c2ccc(C(=O)Nc3cn4cc(-c5cc(C(C)(C)C)cc(C(C)(C)C)c5)ccc4n3)cc2)CC1 . Does its Population Normal (%) lie strictly below 80%?
Output line: yes

Input line: Consider CCn1c(=O)c(-c2ccc(-c3cncs3)cc2Cl)cc2cnc(Nc3ccc(N4CCN(C)CC4)cc3)nc21 . Does its Population Normal (%) lie strictly below 80%?
Output line: no

Input line: Consider Cc1cc(C)c(S(=O)(=O)N(Cc2ccc(-c3cccc(S(C)(=O)=O)c3)cc2)Cc2ccc(C(F)(F)F)o2)c(C)c1 . Does its Population Normal (%) lie strictly below 80%?
Output line: yes

Input line: Consider O=C1NC(=O)C(c2cnc3ccccn23)=C1c1cn2c3c(cc(F)cc13)CN(C(=O)N1CCCCC1)CC2 . Does its Population Normal (%) lie strictly below 80%?
Output line: no

Input line: Consider Cc1ccc(C(=O)Nc2cccc(C(F)(F)F)c2)cc1Nc1nc(-c2cccnc2)nc2c1cnn2C . Does its Population Normal (%) lie strictly below 80%?
Output line: no

Input line: Consider CCCS(=O)(=O)c1nc(NC2CC2)cc(-c2ccc3c(ccn3C3CC(C)(C)NC(C)(C)C3)c2)n1 . Does its Population Normal (%) lie strictly below 80%?
Output line: no

Input line: Consider COC(=N)c1nc2ccc3ncnc(Nc4ccc(OC)cc4F)c3c2s1 . Does its Population Normal (%) lie strictly below 80%?
Output line: yes

* * *

- System: HEK-293T
- test.details: Multiplex assay against HEK293T
- Format: toxicity, cell-based
- run.parameters: human, 48 h, 10 µM, compound concentration 10 uM, replicate 1
Label YES when Population Healthy Nuclei (%) >= 6%; otherwise NO.

Input line: Check the entry Cl.O=C(c1ccc(Nc2nccc(-c3cc4ccccc4s3)n2)cc1)N1CCC(N2CCCC2)CC1 : does Population Healthy Nuclei (%) equal or exceed 6%?
Output line: NO

Input line: Check the entry C=C1/C(=C\C=C2/CCC[C@]3(C)[C@@H]([C@H](C)/C=C/[C@H](C)C(C)C)CC[C@@H]23)C[C@@H](O)C[C@@H]1O : does Population Healthy Nuclei (%) equal or exceed 6%?
Output line: YES

Input line: Check the entry Cc1cn(-c2cc(NC(=O)c3ccc(C)c(Nc4nccc(-c5cccnc5)n4)c3)cc(C(F)(F)F)c2)cn1 : does Population Healthy Nuclei (%) equal or exceed 6%?
Output line: YES

* * *

Assign Population Normal (%) to each entry below.
- Tested on: Fibroblast
- test.details: Multiplex assay against human fibroblast
- Type: toxicity, cell-based
- run.parameters: 48 h, 10 µM, compound concentration 10 uM, replicate 1
// return the numeric value with its unit appended

// solved cases for Population Normal (%) follow
smiles.code: CCOc1cc2ncc(C#N)c(Nc3ccc(OCc4ccccn4)c(Cl)c3)c2cc1NC(=O)/C=C/CN(C)C
reported.value: 57%
//
smiles.code: O=C(Cc1ccc(-c2ccc(OCCN3CCOCC3)cc2)cn1)NCc1ccccc1
reported.value: 82%
//
smiles.code: Cc1cc(C)c(S(=O)(=O)N(Cc2ccc(-c3cccc(S(C)(=O)=O)c3)cc2)Cc2ccc(C(F)(F)F)o2)c(C)c1
reported.value: 59%

Read the next record carefully.
Input line: State the recorded Population Normal (%) for this entry: O=C1NC(=O)C(c2cnc3ccccn23)=C1c1cn2c3c(cc(F)cc13)CN(C(=O)N1CCCCC1)CC2
Output line: 84%

* * *

- Tested on: Fibroblast
- test.details: Multiplex assay against human fibroblast
- Assay type: toxicity, cell-based
- run.parameters: 12 h, 10 µM, compound concentration 10 uM, replicate 2
metric: Population Pyknosed Nuclei (%)
Numbers only, in %.

// solved cases for Population Pyknosed Nuclei (%) follow
molecule: Cc1ccc2nc(NCCN)c3ncc(C)n3c2c1.O=C(O)C(F)(F)F.O=C(O)C(F)(F)F
metric: Population Pyknosed Nuclei (%)
reported.value: 15

molecule: Cl.Oc1ccc2c3c1O[C@H]1c4[nH]c5c(c4C[C@@]4(O)[C@@H](C2)N(CC2CC2)CC[C@]314)C[C@@]1(O)[C@H]2Cc3ccc(O)c4c3[C@@]1(CCN2CC1CC1)[C@H]5O4
metric: Population Pyknosed Nuclei (%)
reported.value: 38

molecule: CNC(=O)c1ccc(Nc2nc(OC3CCCC3)c3c(-c4ccc5nc(C)oc5c4)c[nH]c3n2)c(OC)c1
metric: Population Pyknosed Nuclei (%)
reported.value: 12

molecule: CN1CCC(=C2c3ccccc3CC(=O)c3sccc32)CC1.O=C(O)/C=C/C(=O)O [KETOTIFEN FUMARATE]
metric: Population Pyknosed Nuclei (%)
reported.value: 22

molecule: CN1C2CCC1CC(OC(c1ccc(F)cc1)c1ccc(F)cc1)C2.Cl (stereo not drawn)
metric: Population Pyknosed Nuclei (%)
reported.value: 13

molecule: O=C(Cc1ccc(-c2ccc(OCCN3CCOCC3)cc2)cn1)NCc1ccccc1 [TIRBANIBULIN]
metric: Population Pyknosed Nuclei (%)
reported.value: 7

molecule: CCCS(=O)(=O)c1nc(NC2CC2)cc(-c2ccc3c(ccn3C3CC(C)(C)NC(C)(C)C3)c2)n1
metric: Population Pyknosed Nuclei (%)
reported.value: 19

Read the next record carefully.
Input line: State the recorded Population Pyknosed Nuclei (%) for this entry: CCOC(=O)c1c(C)[nH]c2ccc3c(c12)CN1CCc2cc(OC)ccc2C1O3 (stereo not drawn)
Output line: 22
